In this section we review reported growth values for a set of compounds.
System: SK-MEL-28 melanoma
Experiment: NCI-60 one-dose screen, 48 h (100 = growth as untreated, 0 = no growth, -100 = all killed)
Details: 10 µM unless noted
The panel holds about 83,000 compounds, 20% with a hit somewhere; the sample as a whole holds those more often.
Unit % implied. Number only.

Some compounds with known growth results, for comparison:
>>> numeric_result("CCNCCOc1ccc(/C(=C(/CC)c2ccc(Cl)cc2)c2ccc(OCCCN(C)C)cc2)cc1")
-94.3
>>> numeric_result("Cc1ccccc1Nc1nc(SC(C)C)nc(-c2ccccc2)c1C#N")
87.3
>>> numeric_result("N#C/C(=C\\c1ccc(-c2ccc(Cl)cc2)o1)C(=O)Nc1ncc(Cc2ccc(Br)cc2)s1")
11
>>> numeric_result("NCCNC(=O)c1cccc(COc2ccccc2NC(=O)c2cc(Br)c(Br)[nH]2)c1")
102
>>> numeric_result("CN1CCN(Cc2ccc(NC(=O)c3cncc(C#Cc4cnc5ccc(N)nn45)c3)cc2C(F)(F)F)CC1")
41.2
>>> numeric_result("CCc1cccc2c3c(sc12)C(c1ccc(F)cc1)C(C#N)=C(/N=C/c1ccc(Cl)cc1)O3 (stereo unspecified)")
61.9
>>> numeric_result("N#Cc1c(-c2cccs2)cc(-c2cnccn2)nc1SCC(=O)N/N=C/c1ccc(Cl)cc1")
110
>>> numeric_result("Clc1ccc2[nH]cc(-c3nn4cc(-c5cccnc5)nc4s3)c2c1")
101

Lookup result for Cc1ccc2c(n1)C(=O)C(Cl)=C(Nc1ccc(C(C)C)cc1)C2=O ; measured growth: 6.95

Record summary for COc1ccc(OC)c(CCn2cncc2-c2c[nH]c3ccc(Cl)cc23)c1 : reported growth = 67.7

So for C#Cc1nc(C(=O)NCCCCCCC(=O)NO)cs1 , the logged growth turned out to be -53.1

Entry O=S(=O)(NCCCNc1nccc(-c2[nH]c(-c3ccccc3)nc2-c2ccc(F)c(O)c2)n1)c1cccc(F)c1 ; growth = 31.8

// sample O=C(/C=C/c1ccccc1Cl)Nc1ncc(Cc2cc(Cl)ccc2Cl)s1 , its growth was 55.4

Entry CC1(C)CC[C@]23CC[C@]4(C)[C@H](CC[C@@H]5[C@@]6(C)CC[C@H](N)C(C)(C)[C@@H]6CC[C@]54C)[C@H]2[C@H]1OC3 — recorded growth = 103

----------
Test system: MALME-3M melanoma
Assay: NCI-60 one-dose screen, 48 h (100 = growth as untreated, 0 = no growth, -100 = all killed)
Details: 10 µM unless noted
The panel holds about 83,000 compounds, 20% with a hit somewhere; the sample as a whole holds those more often.
Listed below: growth values for each entry.
Unit % implied. Number only.

Below, each entry is followed by its recorded growth result.
>>> numeric_result("COc1ccc2[nH]cc(-c3nc(N)nnc3-c3cn(C)c4ccc(Br)cc34)c2c1")
42.2
>>> numeric_result("O=C1/C(=C/C=C/c2ccco2)SC(=S)N1Cc1ccccc1")
87.2
>>> numeric_result("O=C(CCCCCCN1CC(=O)N2[C@@H](c3ccc(Cl)s3)c3[nH]c4ccccc4c3C[C@H]2C1=O)NO")
21.9
>>> numeric_result("COc1ccc([C@H]2C(=O)N(c3cc(OC)c(OC)c(OC)c3)[C@@H]2c2ccc(OC)c(O)c2)cc1")
67.8

Looking up CCOC(=O)c1c(N)c(C#N)cn1Cc1ccc(Cl)cc1Cl , I found its growth recorded as 85.6

Per the record, O=C(CSc1nnc(-c2ccc(Cl)cc2)n1-c1ccccc1)Nc1cccc(F)c1 has growth of 52.7

In plain terms, O=C(Nc1ccc(N2CCOCC2)cc1)Nc1ccc2c(ccn2C(=O)c2cccc(F)c2)c1 has a documented growth of 49.4

Sample COc1ccc(/C(=N\NC(N)=S)c2ccc(Cl)cc2)cc1OC ; growth observed: 30.8

response.value for COc1cc(/C=C2/C(=O)Nc3ccc(Cl)cc32)ccc1OCc1ccc(Cl)cc1 (field: growth) = 82.3
